Target: unphosphorylated VEGF-R2D50 (FLVK), cytosolic domain of human VEGF-R2 (Homo sapiens, UniProt P35968, DEL940-989/E990V)
Construct: VEGF-R2D50 contains residues 806–939 and 990–1171
Sequence (P35968 with tags, fused parts or gaps DEL940-989/E990V limits assumed): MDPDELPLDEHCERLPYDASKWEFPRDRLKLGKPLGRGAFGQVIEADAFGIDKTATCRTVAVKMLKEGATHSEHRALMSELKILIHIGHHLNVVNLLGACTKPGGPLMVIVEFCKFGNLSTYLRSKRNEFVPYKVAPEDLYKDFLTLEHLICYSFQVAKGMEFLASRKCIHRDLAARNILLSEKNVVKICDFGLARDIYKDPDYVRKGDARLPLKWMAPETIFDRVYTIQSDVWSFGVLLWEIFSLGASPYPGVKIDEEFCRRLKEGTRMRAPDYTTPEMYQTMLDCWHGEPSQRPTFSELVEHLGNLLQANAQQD
Experiment: VEGF-R2 coupled spectrophotometric assay (FLVK)
pKi: −log10 of the molar value.

{"chemical_structure": "COc1ccc2c(Oc3ccc(CC(=O)Nc4ccc(Cl)cn4)cc3)ccnc2c1", "pKi": "8.00 to 9.00"}
{"chemical_structure": "O=C(Cc1ccc(Oc2ccnc3cc(C(=O)N4CCC4)sc23)cc1)Nc1ccc2ccccc2n1", "pKi": "> 9.00"}
{"chemical_structure": "Cn1ccnc1-c1cc2nccc(Oc3ccc(CC(=O)NCc4cccc(F)c4)c(Cl)c3)c2s1", "pKi": "< 8.00"}
{"chemical_structure": "Cc1cc(NC(=O)Cc2ccc(Oc3ccnc4cc(C(=O)N5CCC5)sc34)cc2Cl)no1", "pKi": "8.00 to 9.00"}
